The entries below are paired with their reported Emax.
- Tested target: SIRT1 (Homo sapiens)
- Assay notes: TAMRA based mass spectrometry assay of SIRT1 activity
- Format: biochemical
- Measurement conditions: TAMRA assay; percent maximum fold activation; read-out: TAMRA % Fold Act

Give Emax (SIRT1 (Homo sapiens)) of the following molecule: Cc1ccnc(NC(=O)c2c(C)nc3ccc(-c4cccc(OC[C@H](O)CO)c4)nn23)c1 [Compound 798]
≥ 350%

---

- Tested target: SIRT1 (Homo sapiens, UniProt Q96EB6)
- Assay notes: TAMRA based mass spectrometry assay of SIRT1 activity
- Assay type: biochemical
- Measurement conditions: TAMRA peptide substrate; percent maximum fold activation; read-out: TAMRA % Fold Act
Experimental readout: Emax

Record excerpt, results attached:
Compound | Emax
Cc1cc(-c2ccccc2C(F)(F)F)nn2c(C(=O)Nc3cccc(N4CC5(COC5)C4)n3)cnc12 [Compound 546] | ≥ 350%
Cc1nn2ccc(-c3ccccc3C(F)(F)F)nc2c1NC(=O)c1cnccn1 [Compound 571] | < 350%
Cc1nc2c(C)cc(-c3ccccc3C(F)(F)F)nn2c1C(=O)NCc1ccccn1 [Compound 561] | < 350%

Consider the record given below.
Given the compound O=C(Nc1cnn2ccc(-c3ccccc3OC(F)(F)F)nc12)c1ccccn1 [Compound 581] , what is its reported Emax?
≥ 350%

---

- Tested target: SIRT1 (Homo sapiens, UniProt Q96EB6)
- Assay notes: TAMRA based mass spectrometry assay of SIRT1 activity
- Format: biochemical
- Measurement conditions: TAMRA assay; percent maximum fold activation; read-out: TAMRA % Fold Act
Experimental readout: Emax

Here is how some compounds turned out for Emax.
Compound | Emax
Cc1nc2ccc(-c3ccccc3Cl)nn2c1NC(=O)c1ncccn1 [Compound 349] | < 350%
Cc1cnc(NC(=O)c2c(C)nn3ccc(-c4ccccc4C(F)(F)F)nc23)c(C)n1 [Compound 753] | ≥ 350%
O=C(Nc1cncc(N2CCOCC2)c1)c1cnc2ccc(-c3ccccc3C(F)(F)F)nn12 [Compound 217] | ≥ 350%

Kindly consider the entry below.
For Cc1cc(NC(=O)c2cnn3ccc(-c4ccccc4OC(F)(F)F)nc23)nc(C)n1 [Compound 659] , what is its reported Emax?
≥ 350%

---

- Tested target: SIRT1 (Homo sapiens, UniProt Q96EB6)
- Sequence (Q96EB6 1-747): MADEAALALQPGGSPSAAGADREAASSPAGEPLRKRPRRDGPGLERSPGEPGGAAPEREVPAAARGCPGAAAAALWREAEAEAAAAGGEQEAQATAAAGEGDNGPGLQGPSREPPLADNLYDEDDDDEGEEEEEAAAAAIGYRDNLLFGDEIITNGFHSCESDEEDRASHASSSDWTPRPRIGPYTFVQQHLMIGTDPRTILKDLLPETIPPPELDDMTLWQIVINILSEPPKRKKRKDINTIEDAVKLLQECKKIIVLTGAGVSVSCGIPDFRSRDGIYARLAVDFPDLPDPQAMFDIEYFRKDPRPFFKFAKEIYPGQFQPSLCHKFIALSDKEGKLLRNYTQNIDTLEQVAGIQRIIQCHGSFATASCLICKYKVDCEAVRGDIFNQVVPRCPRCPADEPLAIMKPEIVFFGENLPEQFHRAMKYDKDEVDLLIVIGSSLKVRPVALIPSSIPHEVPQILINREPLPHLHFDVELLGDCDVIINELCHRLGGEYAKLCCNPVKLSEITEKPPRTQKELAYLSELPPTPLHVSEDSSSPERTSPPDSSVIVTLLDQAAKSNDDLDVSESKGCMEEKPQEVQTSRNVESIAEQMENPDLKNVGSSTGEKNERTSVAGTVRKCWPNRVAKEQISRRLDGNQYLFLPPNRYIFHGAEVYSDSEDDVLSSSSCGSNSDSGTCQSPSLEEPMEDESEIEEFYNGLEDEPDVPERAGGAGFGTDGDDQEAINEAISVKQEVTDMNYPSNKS
- Assay notes: TAMRA based mass spectrometry assay of SIRT1 activity
- Format: biochemical
- Measurement conditions: TAMRA peptide substrate; concentration giving 150% activation of SIRT1

Mol smiles | Tested target | TAMRA EC1.5
O=C(Nc1cnc2ccc(N3CC[C@H](F)C3)nn12)c1ccccn1 | SIRT1 (Homo sapiens, UniProt Q96EB6) | B (EC1.5 1-25 μM)
Cc1cc(C)nc(NC(=O)c2cnc3ccc(N4CCC(F)(F)C4)nn23)c1 | SIRT1 (Homo sapiens, UniProt Q96EB6) | B (EC1.5 1-25 μM)
CN(C)[C@@H]1CCN(c2ccc3ncc(C(=O)Nc4cccc(N5CCOCC5)n4)n3n2)C1 | SIRT1 (Homo sapiens, UniProt Q96EB6) | B (EC1.5 1-25 μM)
